Catalogue of compounds with associated TGI
# System: LXFL 529 NSCLC
# assay text: NCI tumour cell line growth inhibition, 48 h

Below, 8 compounds whose answers are already recorded.
[
  {
    "compound": "O=C(CO)CC(=O)C(=O)Nc1cccc(C(F)(F)F)c1",
    "TGI": "> 100 µM"
  },
  {
    "compound": "CSC(=NC(=O)c1ccccc1)SCCSC(=NC(=O)c1ccccc1)SC",
    "TGI": "> 100 µM"
  },
  {
    "compound": "C/C(CC(=O)Nc1cccc([N+](=O)[O-])c1)=N/NC(N)=S",
    "TGI": "> 100 µM"
  },
  {
    "compound": "COc1ccccc1/C=C1\\CCC(CN2CCOCC2)C1=O (configuration not stated)",
    "TGI": "9.34 µM"
  },
  {
    "compound": "CCCCCCCCC1C(C)c2c([nH]c3ccccc23)C2C(=O)N(c3ccccc3)C(=O)C21 (configuration not stated)",
    "TGI": "30.1 µM"
  },
  {
    "compound": "CC(/C=C1\\CCC(CN(C)C)C1=O)c1cccc(Br)c1 (configuration not stated)",
    "TGI": "17.1 µM"
  },
  {
    "compound": "CCCCCC1CC=CC(NC(=O)OCc2ccccc2)C1/C=C/CCCC1OCCO1 (configuration not stated)",
    "TGI": "> 100 µM"
  },
  {
    "compound": "CCCCCCCCCCCCCP(=O)(OC)OC",
    "TGI": "33.5 µM"
  }
]

// recorded TGI for `COc1ccc(OC)c(CCc2ccccc2CC(=O)O)c1` : > 100 µM

// recorded TGI for `CC(C)OP(=O)(OC(C)C)/C(=N/Nc1ccc([N+](=O)[O-])cc1)NNC(=O)c1ccccc1` : 68.5 µM

// recorded TGI for c1ccc(N2CCN(CCCN3CCc4c([nH]c5ccccc45)C3c3cccnc3)CC2)cc1 (configuration not stated) : > 100 µM

// recorded TGI for `CC[C@@]1(O)C(=O)OCc2c1cc1n(c2=O)Cc2cc3cccc(N)c3nc2-1` : > 100 µM

// recorded TGI for O=C(O)C1Cc2[nH]c3ccccc3c2C2CCCC12 (configuration not stated) : > 100 µM

// recorded TGI for O=C1CS(=O)c2ccccc2N1 (configuration not stated) : > 100 µM

// recorded TGI for `CC1=C(N2CC2)C(=O)C(C)=C(N2CC2)C1=O` : 0.431 µM

// recorded TGI for CN(CCc1ccccn1)/[N+]([O-])=N/O (tested in a mixture with another compound) : > 100 µM

// recorded TGI for COc1ccccc1NC(=O)C(=O)C(c1cnc2ccc([N+](=O)[O-])cc2n1)[N+](=O)[O-] (configuration not stated) : > 100 µM

###

# System: UACC-62 melanoma
# assay text: NCI tumour cell line growth inhibition, 48 h
Catalogue of molecules with associated TGI

Observed TGI on UACC-62 melanoma, entry CCCCCCC(O)C(=O)OC1C2C(CC1(C)C)C(O)C13OC1C(O)C1(CO1)[C@@]23C (some centres undefined) , equals > 100 µM

###

Catalogue of compounds with associated TGI
# Test system: BT-549 breast
# assay text: NCI tumour cell line growth inhibition, 48 h
Where a SMILES comes first, the peptide text is derived from it. Bridges are numbered along the chain shown (N, C = ends).
Form entry: value (µM) — number only.

Below, 3 compounds whose answers are already recorded.
[
  {
    "compound": "CCC(C)C1NC(=O)C(CC(C)C)NC(=O)C(C(C)C)NC(=O)C2CSSCC(NC1=O)C(=O)N2 (stereo not given) (cyclo(CCVLI); disulfide 1-2; configuration not given here)",
    "system under test": "BT-549 breast",
    "unit info": "µM",
    "TGI": 0.369
  },
  {
    "compound": "CCCCCCCCCCCCSC1=CC(=O)C=CC1=O",
    "system under test": "BT-549 breast",
    "unit info": "µM",
    "TGI": 4.57
  },
  {
    "compound": "COc1ccc(Cl)cc1Nc1nc(C(F)(F)F)ccc1C(=O)N/N=C/c1ccccc1Cl",
    "system under test": "BT-549 breast",
    "unit info": "µM",
    "TGI": 8.82
  }
]

Next compound, please.
// recorded TGI for `O=C1NC(NNc2ccccc2)=N/C1=C\c1ccco1` : 50.7

###

# Tested on: TK-10 renal
# assay text: NCI tumour cell line growth inhibition, 48 h
Catalogue of compounds with associated TGI

Below, 8 compounds whose answers are already recorded.
[
  {
    "compound": "CSc1nc(SC)c2c(C)c(Br)[nH]c2n1",
    "readout": "TGI",
    "readout value": "> 100 µM"
  },
  {
    "compound": "O=C(CC1(O)C(=O)Nc2c(Cl)cc(Cl)cc21)c1ccc([N+](=O)[O-])cc1 (stereo unspecified)",
    "readout": "TGI",
    "readout value": "> 100 µM"
  },
  {
    "compound": "CCOC(=O)C(C(=O)OCC)S(C)(=O)=O",
    "readout": "TGI",
    "readout value": "> 100 µM"
  },
  {
    "compound": "CC(=O)Oc1ccc(C)c2c1[C@H]1CC[C@]3(C)[C@@H](OC(C)=O)CC[C@H]3[C@@H]1CC2",
    "readout": "TGI",
    "readout value": "67.9 µM"
  },
  {
    "compound": "CSc1c(S(C)=O)c2ccccc2n1C (stereo unspecified)",
    "readout": "TGI",
    "readout value": "> 100 µM"
  },
  {
    "compound": "C=C1C(=O)O[C@H]2C1C[C@H](O)/C(C)=C/CC[C@@]1(C)O[C@H]21 (stereo partly specified)",
    "readout": "TGI",
    "readout value": "29.9 µM"
  },
  {
    "compound": "Cc1nnc(N)nc1C/C=C/C(C)Sc1ccc(Cl)cc1 (stereo unspecified)",
    "readout": "TGI",
    "readout value": "35.9 µM"
  },
  {
    "compound": "COc1ccc(OC)c(CCc2ccccc2CC(=O)O)c1",
    "readout": "TGI",
    "readout value": "> 100 µM"
  }
]

// recorded TGI for O=C1CS(=O)c2ccccc2N1 (stereo unspecified) : > 100 µM

// recorded TGI for `COC(=O)c1cc2c([nH]c3ccccc32)c(-c2nc3ccccc3cc2CO)n1` : > 100 µM

// recorded TGI for `C#Cc1cccc(Nc2ncnc3ccc(-c4cnc(N)nc4)cc23)c1` : 3.2 µM

###

# System: RXF 393 renal
# assay text: NCI tumour cell line growth inhibition, 48 h
Catalogue of compounds with associated TGI
Form entry: value (µM) — number only.

Below, 3 compounds whose answers are already recorded.
[
  {
    "compound": "CCN(CC)CCCNc1nccc2c(C)c3[nH]c4ccncc4c(=O)c3cc12",
    "readout": "TGI",
    "readout value": 3.18
  },
  {
    "compound": "Oc1ccccc1/C=N\\Nc1ccccc1",
    "readout": "TGI",
    "readout value": 77.9
  },
  {
    "compound": "N#Cc1ccc(O)c(C2=NCC(c3ccc(-c4ccccc4)cc3)O2)c1 (stereo unspecified)",
    "readout": "TGI",
    "readout value": 5.55
  }
]

// recorded TGI for `COC1=C(OC)C(=O)C(C/C=C/c2c(Cl)nc3sccn23)=C(C)C1=O` : 37.5

// recorded TGI for C[C@H]1[C@H](C)CC[C@]2(C(=O)O)CCC3(COC(=O)/C=C/c4ccc(O)cc4)C(=CCC4[C@@]5(C)CC[C@H](O)C(C)(C)C5CC[C@]43C)[C@H]12 (stereo partly specified) : 23.5

// recorded TGI for `O=C1/C=C/[C@@H](O)[C@@H]2C[C@@H](O)C[C@H]2/C=C/CCC[C@H](CCc2ccc(NC(=S)Nc3ccc4c(c3)C(=O)OC43c4ccc(O)cc4Oc4cc(O)ccc43)cc2)O1` : 0.736

// recorded TGI for CC(=O)OC1(C)CC(C)C(=O)C(C(O)CC2CC(=O)NC(=O)C2)C1 (stereo unspecified) : 0.0899

// recorded TGI for `O=C(Cn1c2ccc(Br)cc2c2nc3ccccc3nc21)N1CCOCC1` : 98.9

// recorded TGI for `CC(=O)Oc1ccc(C)c2c1[C@H]1CC[C@]3(C)[C@@H](OC(C)=O)CC[C@H]3[C@@H]1CC2` : 35.4

// recorded TGI for `Cn1c2ccccc2c2c(=O)n(CCCC(=O)NCCc3cnc[nH]3)c3c(-c4ccccc4)nnn3c21` : 18.2

// recorded TGI for CCOC1Oc2ccccc2C(=O)/C1=C\Nc1ccc(C(=O)O)c(O)c1 (stereo unspecified) : 41.9

###

# System: NCI/ADR-RES ovarian
# assay text: NCI tumour cell line growth inhibition, 48 h; in the data active = GI50 below about 0.43 µM; inactive = the rest
# output must be one of Y (active), N (inactive)

[
  {
    "molecule": "Cc1cnc(-c2ccc(-c3ccc(NC(=O)Nc4cccc(C(F)(F)F)c4)cc3F)c3c2C(=O)NC3)[nH]1",
    "cat": "N"
  },
  {
    "molecule": "Cn1cc(-c2csc(-c3cn(CCCN4CCCCC4)c4ccc(Br)cc34)n2)c2cccnc21",
    "cat": "N"
  },
  {
    "molecule": "Cl.[O-]c1cccc2cccnc12.[O-]c1cccc2cccnc12.[O-]c1cccc2cccnc12.[O-]c1cccc2cccnc12.[Ti+4]",
    "cat": "Y"
  },
  {
    "molecule": "C#Cc1cccc(Nc2ncnc3ccc(-c4cnc(N)nc4)cc23)c1",
    "cat": "N"
  }
]

input: Please share the test call associated with `Cc1nccc2c3ccc(OCc4cn(-c5ccc(Br)cc5)nn4)cc3n(CCCc3ccccc3)c12` .
output: N

input: Please share the test call associated with CCN(CC)CCOc1ccc(NC(=O)C(C(C)C)N2C(=O)/C(=C/c3ccc(Br)cc3)SC2=S)cc1 (stereo not given) .
output: N

Numbers sourced from PubChem BioAssay (NCI).
